- system tested: JAK1 (Homo sapiens (Human))
- measurement description: JAK Caliper Enzyme Assay at 1 mM ATP, JAK1
- Assay type: biochemical
- setup conditions: JAK Caliper enzyme assay
Documented IC50 across a set of compounds

See these solved cases before continuing.
N#CC[C@]1(n2cc(-c3cc(-c4cc[nH]n4)cc4nccn34)cn2)C[C@H](C#N)C1 [Example 455]    > 10 µM
N#CC[C@]1(n2ncc(-c3cc(-c4cc[nH]c(=O)c4)cc4ncccc34)n2)C[C@H](C#N)C1 [Example 411]    > 10 µM

Now examine the next entry.
// query IC50 value for entry N#CCC1(n2ncc(-c3cc(-c4cnc5cccnn45)cc4ncccc34)n2)CC(C#N)C1 (stereo not drawn) [Example 421]
1.56 µM

---

- system tested: TYK2 (Homo sapiens (Human), UniProt P29597)
- Sequence (P29597 897-1176): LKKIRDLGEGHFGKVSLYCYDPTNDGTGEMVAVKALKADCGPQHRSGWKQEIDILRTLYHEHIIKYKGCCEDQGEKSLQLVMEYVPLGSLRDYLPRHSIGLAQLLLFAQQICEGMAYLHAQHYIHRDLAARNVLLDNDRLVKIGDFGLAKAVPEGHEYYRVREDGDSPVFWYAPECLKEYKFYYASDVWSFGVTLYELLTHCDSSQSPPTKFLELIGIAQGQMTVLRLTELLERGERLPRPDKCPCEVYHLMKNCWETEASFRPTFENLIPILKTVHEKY
- measurement description: JAK Caliper Enzyme Assay at 1 mM ATP, TYK2
- Type: biochemical
Documented IC50 across a set of compounds
Reply with just the number (in nM).

CS(=O)(=O)N1CC(CC#N)(n2ccc(-c3nc(-c4c[nH]c5cccnc45)cc4ncccc34)n2)C1    795

// query IC50 value for entry N#CCC1(n2ccc(-c3nc(-c4ccn[nH]4)cc4ncccc34)n2)CC(C#N)C1 (centres unmarked)
9

// query IC50 value for entry N#CC[C@]1(n2ncc(-c3cc(-c4cc[nH]n4)cc4ncccc34)n2)C[C@@H](C#N)C1
5

---

- system tested: JAK1 (Homo sapiens (Human))
- measurement description: JAK Caliper Enzyme Assay at 1 mM ATP, JAK1
- Type: biochemical
- setup conditions: JAK Caliper enzyme assay
Response field label takes Y when IC50 is strictly below 3 µM and N in all other cases.

Recorded results for 10 molecules are shown here.
CO[C@H]1C[C@](CC#N)(n2cc(-c3cc(-c4c[nH]nc4CO)cc4nccn34)cn2)C1    N
CS(=O)(=O)N1CC(CC#N)(n2ncc(-c3cc(-c4ccc(CN)cc4)cc4ncccc34)n2)C1    N
CS(=O)(=O)N1CC(CC#N)(n2ncc(-c3cc(-c4cccc(CO)c4F)cc4ncccc34)n2)C1    N
N#CC[C@]1(n2ncc(-c3cc(-c4cnc5[nH]ccc5n4)cc4ncccc34)n2)C[C@@H](C#N)C1    N
CS(=O)(=O)N1CC(CC#N)(n2ncc(-c3cc(-c4ccc(O)cc4)cc4ncccc34)n2)C1    Y
CS(=O)(=O)N1CC(CC#N)(n2ncc(-c3cc(-c4cccc(CO)c4)cc4ncccc34)n2)C1    N
CS(=O)(=O)N1CC(CC#N)(n2ncc(-c3cc(-c4ccccc4O)cc4ncccc34)n2)C1    N
N#CC[C@]1(n2cc(-c3cc(-c4ccc(O)cc4)cc4nccn34)cn2)C[C@@H](C#N)C1    Y
N#CCC1(n2ncc(-c3cc(-c4ncccn4)cc4ncccc34)n2)CC(C#N)C1 (stereo not shown)    N
CS(=O)(=O)N1CC(CC#N)(n2ncc(-c3cc(-c4ccc(=O)[nH]c4)cc4ncccc34)n2)C1    Y

Item CS(=O)(=O)N1CC(CC#N)(n2cnc(-c3cc(-c4cn[nH]c4)cc4ncccc34)n2)C1 : IC50 beneath 3 µM, strictly?
N

Item Cc1cc(-c2cc(-c3cnn(C4(CC#N)CN(S(C)(=O)=O)C4)n3)c3cccnc3c2)cnc1N : IC50 beneath 3 µM, strictly?
N

Item N#CCC1(n2ncc(-c3cc(-c4cccc5c4NC(=O)C5)cc4ncccc34)n2)CC(C#N)C1 (stereo not shown) : IC50 beneath 3 µM, strictly?
N

---

- system tested: JAK1 (Homo sapiens (Human))
- measurement description: JAK Caliper Enzyme Assay at 1 mM ATP, JAK1
- Assay type: biochemical
readout label: IC50 (nM)
Reply with just the number (in nM).

Cn1cc(-c2cc3ncccc3c(-c3ccn(C4(CC#N)CN(CC(F)(F)F)C4)n3)n2)ccc1=O    1080
Cn1cc(-c2cc3ncccc3c(-c3ccn([C@]4(CC#N)C[C@@H](C#N)C4)n3)n2)cn1    591
N#CC[C@]1(n2ccc(-c3nc(-c4cn[nH]c4)cc4ncccc34)n2)C[C@@H](c2ccn[nH]2)C1    166

Now examine the next entry.
Provide the documented IC50 with JAK1 (Homo sapiens (Human)) as the system for Cn1cc(-c2cc(-c3cnn([C@]4(CC#N)C[C@H](C#N)C4)n3)c3cccnc3c2)c(N)n1
1690

---

- system tested: JAK1 (Homo sapiens (Human), UniProt P23458)
- Sequence (P23458 875-1153): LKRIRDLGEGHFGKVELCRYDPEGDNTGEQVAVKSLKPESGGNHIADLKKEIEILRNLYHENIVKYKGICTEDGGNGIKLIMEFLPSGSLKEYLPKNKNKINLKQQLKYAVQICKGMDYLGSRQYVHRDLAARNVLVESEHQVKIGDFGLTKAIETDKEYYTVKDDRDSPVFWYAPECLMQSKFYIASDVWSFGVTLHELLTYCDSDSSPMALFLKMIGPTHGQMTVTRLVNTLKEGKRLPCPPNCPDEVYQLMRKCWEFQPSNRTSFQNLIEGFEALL
- measurement description: JAK Caliper Enzyme Assay at 1 mM ATP, JAK1
- Format: biochemical
- Description: Compounds of the invention were evaluated by in vitro methods to determine their respective ability to inhibit the JAK kinases (TYK2, JAK1, JAK2, JAK3). The human JAK inhibitory activity was determined by using a microfluidic assay to monitor phosphorylation of a synthetic peptide by the recombinant human kinase domain of each of the four members of the JAK family, JAK1, JAK2, JAK3 and TYK2. […]
Documented IC50 across a set of compounds

N#CC[C@H]1C[C@@](CC#N)(n2ccc(-c3nc(-c4cn[nH]c4)cc4ncccc34)n2)C1    0.172 µM

// query IC50 value for entry Cn1cc(-c2cc(-c3ccn(C4(CC#N)CN(CC(F)(F)F)C4)n3)c3cccnc3c2)cn1
> 10 µM

// query IC50 value for entry N#CC[C@]1(n2ccc(-c3nc(-c4cc(N)cnn4)cc4ncccc34)n2)C[C@@H](C#N)C1
> 10 µM

// query IC50 value for entry N#CC[C@]1(n2ccc(-c3nc(-c4cc(N)cnn4)cc4ncccc34)n2)C[C@H](C#N)C1
> 10 µM

---

- system tested: TYK2 (Homo sapiens (Human), UniProt P29597)
- measurement description: JAK Caliper Enzyme Assay at 1 mM ATP, TYK2
- Type: biochemical
Documented IC50 across a set of molecules
Reply with just the number (in µM).

N#CC[C@H]1C[C@](CC#N)(n2ccc(-c3nc(-c4ccn[nH]4)cc4ncccc34)n2)C1    0.061
CO[C@H]1C[C@](CC#N)(n2cc(-c3nc(-c4cnn(CCO)c4)cc4ncccc34)cn2)C1    0.077

Now examine the next entry.
Provide the documented IC50 with TYK2 (Homo sapiens (Human), UniProt P29597) as the system for CO[C@H]1C[C@](CC#N)(n2ccc(-c3nc(-c4cnn(CCO)c4)cc4ncccc34)n2)C1
0.133

---

- system tested: TYK2 (Homo sapiens (Human), UniProt P29597)
- measurement description: JAK Caliper Enzyme Assay at 1 mM ATP, TYK2
- Type: biochemical
- setup conditions: JAK Caliper enzyme assay
Documented pIC50 across a set of compounds
Scale: pIC50 equals -log10([C]), with [C] in mol/L.

See these solved cases before continuing.
N#CC[C@]1(n2ncc(-c3cc(-c4ccc(N)nn4)cc4ncccc34)n2)C[C@H](C#N)C1 [Example 401]    7.26
N#CC[C@]1(n2ncc(-c3cc(-c4ccc(C(=O)O)cc4)cc4ncccc34)n2)C[C@H](C#N)C1 [Example 435]    7.77
N#CC[C@]1(n2ncc(-c3cc(-c4cc(C(N)=O)c(F)cn4)cc4ncccc34)n2)C[C@H](C#N)C1 [Example 385]    6.01
N#CC[C@]1(n2ncc(-c3cc(-c4cnn5cccnc45)cc4ncccc34)n2)C[C@H](C#N)C1 [Example 420]    6.04

// query pIC50 value for entry Cn1cc(-c2cc(-c3cnn(C4(CC#N)CN(CC(F)(F)F)C4)c3)n3ncnc3c2)cn1 [Example 475]
6.34

// query pIC50 value for entry N#CC[C@]1(n2ncc(-c3cc(-c4cn5ccnc5c(N)n4)cc4ncccc34)n2)C[C@@H](C#N)C1 [Example 423]
7.12

// query pIC50 value for entry N#CC[C@]1(n2ncc(-c3cc(-c4ccc(C(N)=O)cc4)cc4ncccc34)n2)C[C@H](C#N)C1 [Example 433]
7.70

// query pIC50 value for entry Cc1nc(-c2cc(-c3cnn([C@]4(CC#N)C[C@@H](C#N)C4)n3)c3cccnc3c2)ccc1CCO [Example 379]
6.91

// query pIC50 value for entry CS(=O)(=O)N1CC(CC#N)(n2ncc(-c3cc(-c4cncnc4)cc4ncccc34)n2)C1 [Example 389]
5.30

// query pIC50 value for entry CS(=O)(=O)N1CC(CC#N)(n2ncc(-c3cc(-c4cccc(CO)c4F)cc4ncccc34)n2)C1 [Example 445]
6.48

// query pIC50 value for entry N#CC[C@]1(n2cc(-c3cc(-c4cccc(C(N)=O)n4)cc4nccn34)cn2)C[C@H](C#N)C1 [Example 470]
7.60

// query pIC50 value for entry CO[C@H]1C[C@](CC#N)(n2cc(-c3cc(-c4c[nH]nc4CO)cc4nccn34)cn2)C1 [Example 464]
5.33

// query pIC50 value for entry CC(=O)Nc1cccc(-c2cc(-c3cnn([C@]4(CC#N)C[C@@H](C#N)C4)n3)c3cccnc3c2)n1 [Example 376]
7.44

// query pIC50 value for entry N#CC[C@]1(n2cc(-c3cc(-c4cc[nH]n4)cc4nccn34)cn2)C[C@@H](C#N)C1 [Example 454]
7.44

// query pIC50 value for entry COc1nc(-c2cc(-c3cnn([C@]4(CC#N)C[C@H](C#N)C4)c3)n3ccnc3c2)ccc1N [Example 471]
7.48

// query pIC50 value for entry CS(=O)(=O)N1CC(CC#N)(n2ncc(-c3cc(-c4ccc(O)c(F)c4)cc4ncccc34)n2)C1 [Example 444]
7.11

// query pIC50 value for entry Cn1cc(-c2cc(-c3ccn(C4(CC#N)CN(CC(F)(F)F)C4)n3)n3ncnc3c2)cn1 [Example 476]
6.32

// query pIC50 value for entry Cn1cc(-c2cc(-c3cnn([C@]4(CC#N)C[C@@H](C#N)C4)c3)n3ccnc3c2)cn1 [Example 459]
6.53

// query pIC50 value for entry Cn1cc(-c2cc(-c3cnn(C4(CC#N)CN(S(C)(=O)=O)C4)n3)c3cccnc3c2)ccc1=O [Example 412]
6.78

// query pIC50 value for entry N#CC[C@]1(n2ncc(-c3cc(-c4cccc5c4NC(=O)C5)cc4ncccc34)n2)C[C@@H](C#N)C1 [Example 449]
6.43

// query pIC50 value for entry CS(=O)(=O)Nc1cccc(-c2cc(-c3cnn(C4(CC#N)CC(C#N)C4)n3)c3cccnc3c2)n1 (centres unmarked) [Example 372]
7.68

// query pIC50 value for entry CS(=O)(=O)N1CC(CC#N)(n2ncc(-c3cc(-c4cccc(C(N)=O)c4)cc4ncccc34)n2)C1 [Example 430]
7.03

// query pIC50 value for entry CS(=O)(=O)N1CC(CC#N)(n2ncc(-c3cc(-c4ccc(F)cc4O)cc4ncccc34)n2)C1 [Example 441]
5.96

Each recorded value in this set is attributed to patent US11254668B2.
